# ASSAY NOTES: Plasma concentration in CD1 mouse at 18 mg/kg, iv administered as single dose measured after 30 mins
# Format: ADME, organism-based
# Set-up: dose 18 mg/kg, route intravenous

{"SUBSTANCE SMILES": "CO[C@@H]([C@@H]1Cc2cc3cc(O[C@H]4C[C@@H](O[C@H]5C[C@@H](O)[C@H](O)[C@@H](C)O5)[C@H](O)[C@@H](C)O4)c(C)c(O)c3c(O)c2C(=O)[C@H]1O[C@H]1C[C@@H](O[C@H]2C[C@@H](O[C@H]3C[C@H](O)[C@H](O)[C@@H](C)O3)[C@H](O)[C@@H](C)O2)[C@H](O)[C@@H](C)O1)[C@@H](O)C(C)=O", "concentration at 0.5 h": "1700 nM"}
